Molecular target: Sphingosine 1-phosphate receptor 1 (Homo sapiens)
Sequence (P21453 whole entry): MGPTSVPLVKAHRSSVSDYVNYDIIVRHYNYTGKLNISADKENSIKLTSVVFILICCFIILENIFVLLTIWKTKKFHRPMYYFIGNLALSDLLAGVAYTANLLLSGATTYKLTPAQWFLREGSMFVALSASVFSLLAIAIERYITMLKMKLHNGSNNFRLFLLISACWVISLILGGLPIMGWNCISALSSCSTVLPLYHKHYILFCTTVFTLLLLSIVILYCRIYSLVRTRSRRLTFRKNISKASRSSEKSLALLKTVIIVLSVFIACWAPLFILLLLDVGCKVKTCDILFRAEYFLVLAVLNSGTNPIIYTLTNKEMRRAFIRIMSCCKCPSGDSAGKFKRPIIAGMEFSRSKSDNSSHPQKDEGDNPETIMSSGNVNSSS
Test: Induction of human GFP-tagged chimeric S1P1R internalization in human U2Os cells by fluorescence microscopy relative to 1-(4-(6-benzylbenzofuran-2-yl)-3-fluorobenzyl)azetidine-3-carboxylic acid
Format: cell-based
MEASUREMENT_TYPE: Efficacy (%)
Could you give me the number in %? Just the number is fine.

Lab request: please report Efficacy under test system Sphingosine 1-phosphate receptor 1 (Homo sapiens) for CCCCOc1ccc2oc(-c3ccc(CN4CC(C(=O)O)C4)cc3OC)cc2c1
117

Next record, please: O=C(O)C1CN(Cc2ccc(-c3cc4cc(OCC5CC5)ccc4o3)c(F)c2)C1
156

Next record, please: O=C(O)C1CN(Cc2ccc(-c3cc4cc(C5CCCCC5)ccc4o3)c(F)c2)C1
100

Next record, please: O=C(O)C1CN(Cc2ccc(-c3cc4cc(C5CCCCC5)ccc4o3)nc2)C1
115

Next record, please: CCCCOc1ccc2cc(-c3ccc(CN4CC(C(=O)O)C4)cc3)oc2c1
89

Next record, please: O=C(O)C1CN(Cc2ccc(-c3cc4cc(OCC5CCCC5)ccc4o3)c(F)c2)C1
71

Next record, please: CCCCOc1ccc2oc(-c3ccc(CN4CC(C(=O)O)C4)cc3Cl)cc2c1
104

Next record, please: O=C(O)C1CN(Cc2ccc(-c3cc4cc(Cc5ccccc5)ccc4o3)cc2F)C1
100
